Target: Cytochrome P450 2C19 (Homo sapiens) (UniProt P33261)
Sequence (P33261 whole entry, looked up): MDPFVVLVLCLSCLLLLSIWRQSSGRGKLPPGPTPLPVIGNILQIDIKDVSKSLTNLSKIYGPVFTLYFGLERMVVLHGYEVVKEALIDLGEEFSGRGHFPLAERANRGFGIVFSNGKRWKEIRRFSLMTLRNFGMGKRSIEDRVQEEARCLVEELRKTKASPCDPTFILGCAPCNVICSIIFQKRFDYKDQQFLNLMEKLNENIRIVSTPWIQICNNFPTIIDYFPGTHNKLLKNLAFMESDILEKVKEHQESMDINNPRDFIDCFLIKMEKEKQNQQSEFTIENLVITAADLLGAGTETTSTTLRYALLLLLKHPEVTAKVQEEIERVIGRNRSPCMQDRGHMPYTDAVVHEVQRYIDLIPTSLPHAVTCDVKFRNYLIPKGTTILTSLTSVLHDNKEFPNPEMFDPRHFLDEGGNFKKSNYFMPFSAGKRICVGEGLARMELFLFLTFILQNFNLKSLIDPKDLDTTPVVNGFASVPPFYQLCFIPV
Experiment: Cytochrome panel assay with activity outcomes
Details: recombinant CYP, pro-luciferin dealkylation, luminescence, p450-cyp2c19; series mostly up to 57.1 µM
Method: The P450 gene superfamily is involved in the metabolism and clearance of xenobiotics. This assay used various human CYP P450 isozymes to measure the dealkylation of various pro-luciferin substrates to luciferin. The luciferin is then measured by luminescence after the addition of a luciferase detection reagent. […] Inhibitors and some substrates limit the production of luciferin, and decrease measured luminescence. […] 8, Detection, 1 sec, ViewLux luminescent read […]
In all, about 16,000 compounds went through this assay and about 5,800 (36%) were called active. Inconclusive results (about 23%) are left out. Calls follow the shape of the dose curve; as a rule, active = well fitted curve in the direction sought with a large enough effect; inconclusive = small, poorly fitted or top-dose-only effect, or effect the other way; inactive = no such curve, though single readings can be large or run the other way. The list shows a part of the results.
Mark one answer only. Choices: 1.0 for active, 0.0 for inactive

CCn1c(SCC(=O)NC(=O)NCc2ccco2)nnc1-c1cccs1
1.0

Challenge: Just curious, what result did CC[C@H](C)[C@@H]1O[C@]2(CC[C@@H]1C)C[C@H]1C[C@H](CC=C(C)[C@@H](O[C@@H]3C[C@H](OC)[C@H](O[C@@H]4C[C@H](OC)[C@H](O)[C@H](C)O4)[C@H](C)O3)[C@@H](C)C=CC=C3CO[C@@H]4[C@@H](O)C(C)=C[C@@H](C(=O)O1)[C@]34O)O2 get here?
Response given: 0.0

Challenge: Record: CCn1c(SCC(=O)NC2CCCc3ccccc32)nnc1-c1cccs1 (stereo not drawn)
Response given: 1.0
